Test system: MDA-MB-231 complex spheroid viability
Experiment: Anticancer human tumor MDA-MB-231/ATCC cell line growth inhibition;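 note: drug exposure lasted 7 days starting on day 3 of spheroid growth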
Conditions: curve of first compound; second compound 0.316 µM
IC50 values for the molecules below.

{"molecule": "CC(C)c1c(-c2ccccc2)nc2c(C#N)c[nH]n2c1=O + NC1CCC(NC2CC2c2ccccc2)CC1", "experimental-system": "MDA-MB-231 complex spheroid viability", "operator": ">", "IC50 [nM]": 10000}
{"molecule": "Nc1ncn(C2CC(O)C(CO)O2)c(=O)n1 (centres undefined) + NC1CC1c1ccc(-c2cccc(O)c2)cc1", "experimental-system": "MDA-MB-231 complex spheroid viability", "operator": "=", "IC50 [nM]": 560}
{"molecule": "CC1COCCN1c1cc(-c2ccnn2C)c2ccnc(-c3ccn[nH]3)c2n1 (centres undefined) + NC1CC1c1ccc(-c2cccc(O)c2)cc1", "experimental-system": "MDA-MB-231 complex spheroid viability", "operator": "<", "IC50 [nM]": 3.16}
{"molecule": "O=C(C=Cc1cccc(S(=O)(=O)Nc2ccccc2)c1)NO + NC1CCC(NC2CC2c2ccccc2)CC1", "experimental-system": "MDA-MB-231 complex spheroid viability", "operator": "=", "IC50 [nM]": 106}
